The measurements presented in this section are drawn from paper PMC7136958.

assay-target: PXR (Homo sapiens, UniProt O75469)
Sequence (O75469 whole entry): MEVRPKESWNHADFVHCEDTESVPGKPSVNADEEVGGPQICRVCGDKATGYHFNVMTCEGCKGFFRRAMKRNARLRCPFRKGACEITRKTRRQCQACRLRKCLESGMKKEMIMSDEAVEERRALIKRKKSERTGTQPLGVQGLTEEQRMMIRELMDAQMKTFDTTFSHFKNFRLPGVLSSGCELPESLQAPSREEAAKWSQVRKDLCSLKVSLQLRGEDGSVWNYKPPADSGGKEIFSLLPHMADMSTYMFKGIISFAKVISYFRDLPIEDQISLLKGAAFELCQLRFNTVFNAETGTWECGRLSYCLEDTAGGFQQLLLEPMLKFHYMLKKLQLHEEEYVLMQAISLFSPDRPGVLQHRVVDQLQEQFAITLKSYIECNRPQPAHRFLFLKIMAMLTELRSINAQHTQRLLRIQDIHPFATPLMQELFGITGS
protocol-description: PXR reporter (p3A4-luc luciferase) assay in LS180 cells transiently transfected with wild-type PXR
experimental-context: 10 uM
Outcome label depends on aver (mean luciferase signal of H1-H4) relative to 100000: at/above gives true, below gives false.

Exam item: Check this compound for aver (mean luciferase signal of H1-H4) at or above 100000: OC(c1ccncc1)(c1cc2ccccc2[nH]1)c1cc2ccccc2[nH]1
Marked response: false

Exam item: Check this compound for aver (mean luciferase signal of H1-H4) at or above 100000: O=S(=O)(c1ccccc1)n1c(C(O)c2ccncc2)cc2ccccc21 (racemic)
Marked response: false

Exam item: Check this compound for aver (mean luciferase signal of H1-H4) at or above 100000: OC(Cc1cc2ccccc2[nH]1)(c1ccncc1)c1cc2ccccc2[nH]1 (centres unmarked)
Marked response: false

Exam item: Check this compound for aver (mean luciferase signal of H1-H4) at or above 100000: Cc1[nH]c2ccccc2c1C(c1c(C)[nH]c2ccccc12)c1c(C)[nH]c2ccccc12 [FKK999, reference compound]
Marked response: false

Exam item: Check this compound for aver (mean luciferase signal of H1-H4) at or above 100000: O=S(=O)(c1ccccc1)n1c(C(O)(Cc2cc3ccccc3[nH]2)c2ccncc2)cc2ccccc21 (racemic)
Marked response: false

Exam item: Check this compound for aver (mean luciferase signal of H1-H4) at or above 100000: O=C(c1ccncc1)c1cc2ccccc2n1S(=O)(=O)c1ccccc1
Marked response: true

Exam item: Check this compound for aver (mean luciferase signal of H1-H4) at or above 100000: CC#CC(O)(c1ccncc1)c1cc2ccccc2n1S(=O)(=O)c1ccccc1 (racemic)
Marked response: false

Exam item: Check this compound for aver (mean luciferase signal of H1-H4) at or above 100000: C#CCC(O)(c1ccncc1)c1cc2ccccc2n1S(=O)(=O)c1ccccc1 (centres unmarked)
Marked response: true
